# system.under.test: T1, C5a receptor expressed on the surface of human PMNs (human, UniProt P21730 1-350)
# T1 construct: whole, on cells; also called C5aRs; C5aR5
# T1 sequence (looked up): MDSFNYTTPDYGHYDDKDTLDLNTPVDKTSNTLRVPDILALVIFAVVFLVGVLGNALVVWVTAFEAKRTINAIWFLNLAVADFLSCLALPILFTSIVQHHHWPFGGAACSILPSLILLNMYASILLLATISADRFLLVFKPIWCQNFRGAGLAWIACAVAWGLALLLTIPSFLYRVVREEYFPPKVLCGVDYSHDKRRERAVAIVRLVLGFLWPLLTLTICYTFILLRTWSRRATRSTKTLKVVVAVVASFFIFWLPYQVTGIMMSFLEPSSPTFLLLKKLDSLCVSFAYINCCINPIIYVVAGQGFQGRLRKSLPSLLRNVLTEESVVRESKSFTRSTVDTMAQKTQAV
# assay.comment: competition with 125I-C5a on intact human PMNs
Non-standard residues stand in square brackets, D forms with d. No end group written: not given here.
IC50 less than 4000 nM is Satisfied; IC50 greater than or equal to 4000 nM is Not satisfied.

Exercise: Consider the binder IPQSLDSWWTSLRVRRYSFKPMPL[dA]R (synthetic peptide; also called RVRR-containing C5a-active construct) [IPQSLDSWWTSLRVRRYSFKPMPLaR] . Is its IC50 strictly less than 4000 nM?
Key: Satisfied

Exercise: Field entry: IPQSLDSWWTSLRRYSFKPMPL[dA]R (synthetic peptide; also called double-Arg-linked C5a-active construct) [IPQSLDSWWTSLRRYSFKPMPLaR]
Key: Satisfied

Exercise: Field entry: natural C5a (ligand, UniProt P01031 678-751, looked up, C5a is a fragment of it) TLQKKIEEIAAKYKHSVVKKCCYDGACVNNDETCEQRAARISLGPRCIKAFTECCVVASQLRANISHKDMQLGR
Key: Satisfied

Exercise: Field entry: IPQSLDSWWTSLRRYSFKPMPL[dA]RG (synthetic peptide) [IPQSLDSWWTSLRRYSFKPMPLaRG]
Key: Not satisfied

Exercise: Field entry: YSFKPMPL[dA]RRRIPQSLDSWWTSL (synthetic peptide) [YSFKPMPLa[…]]
Key: Not satisfied

Exercise: Field entry: IPQSLDSWWTSLYSFKPMPL[dA]R (synthetic peptide) [IPQSLDSWWTSLYSFKPMPLaR]
Key: Satisfied
